Data origin: the NIST ThermoML archive (doi:10.1021/je900878j)

conditions: 303.15 K; 101.33 kPa; Liquid; Vibrating tube method
reported metric: mass density (kg/m3)
Express your answer in kg/m3, writing the number without its unit.

Request: What value of mass density has been recorded for this entry: CCCCn1cc[n+](C)c1.F[B-](F)(F)F [1-butyl-3-methylimidazolium tetrafluoroborate]
Response: 1198.6

Request: What value of mass density has been recorded for this entry: CCn1cc[n+](C)c1.N#CN=C=[N-] [1-ethyl-3-methylimidazolium dicyanamide]
Response: 1097.5

Request: What value of mass density has been recorded for this entry: CCn1cc[n+](C)c1.F[B-](F)(F)F [1-ethyl-3-methylimidazolium tetrafluoroborate]
Response: 1285

Request: What value of mass density has been recorded for this entry: CCn1cc[n+](C)c1.O=S(=O)([N-]S(=O)(=O)C(F)(F)F)C(F)(F)F
Response: 1514.2
